Tgt: DCN1 (DCUND1) protein PONY domain (Homo sapiens (Human), UniProt Q96GG9)
Sequence (Q96GG9 60-248): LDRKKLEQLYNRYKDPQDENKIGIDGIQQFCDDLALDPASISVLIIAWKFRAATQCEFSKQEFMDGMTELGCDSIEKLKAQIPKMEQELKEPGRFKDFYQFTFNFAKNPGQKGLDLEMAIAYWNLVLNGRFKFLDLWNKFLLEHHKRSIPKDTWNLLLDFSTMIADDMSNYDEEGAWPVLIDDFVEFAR
Assay details: TR-FRET assay, DCN1 binding with FAM-labeled probe
Experimental conditions: 24 hr after treatment with compound; read-out: TR FRET IC50 24 hr
Measure name: IC50

For orientation, consider the following solved cases.
>  <Compound>
CCN1C(=O)[C@@H](NC(=O)C2(c3ccccc3)CC2)[C@@H](C2CC2)c2c(C(=O)N3[C@H](C#N)C[C@H]4C[C@H]43)nn(C3CCOCC3)c21

>  <IC50>
1000 to 3000 nM

$$$$
>  <Compound>
CCCn1nc(C(=O)N2[C@H](C#N)C[C@H]3C[C@H]32)c2c1N(CC)C(=O)[C@@H](NC(=O)c1cccc(C(F)(F)F)c1)[C@H]2c1ccc(F)cc1

>  <IC50>
≤ 200 nM

$$$$

Input line: // lookup IC50 for CCN1C(=O)[C@@H](NC(=O)c2cccc(C(F)(F)F)c2)[C@@H](c2ccc(F)cc2)c2c([C@@H](C)N(C#N)C(=O)OCCN3CCN(C)CC3)nn(-c3ccccc3)c21
Output line: ≤ 200 nM

Input line: // query: CCN1C(=O)[C@@H](NC(=O)c2cccc(C(F)(F)F)c2)[C@@H](c2ccc(F)cc2)c2c(C(=O)N3CC[C@H]3C#N)nn(C3CCOCC3)c21
Output line: ≤ 200 nM

Input line: // query: CCN1C(=O)[C@@H](NC(=O)c2cccc(C(F)(F)F)c2)[C@@H](c2ccc(C)cc2)c2c(C(=O)N(C)C(C)C#N)nn(C3CC3)c21 (some centres unmarked)
Output line: ≤ 200 nM

Input line: // query: CCN1C(=O)[C@H](NC(=O)c2cccc(C(F)(F)F)c2)[C@H](C2CC2)c2c(C(=O)N(CC#N)C3CC3)nn(-c3ccccc3)c21
Output line: 1000 to 3000 nM

Input line: // query: CCN1C(=O)[C@@H](NC(=O)c2cccc(C(F)(F)F)c2)[C@H](c2ccc(F)cc2)c2c(CN(C)C#N)nn(-c3ccccc3)c21 (single isomer, unassigned)
Output line: 200 to 1000 nM

Input line: // query: CCN1C(=O)[C@@H](NC(=O)c2cccc(C(F)(F)F)c2)[C@@H](c2ccc(F)cc2)c2c(C(=O)N(CC#N)CCCN(C)C)nn(-c3ccccc3)c21 (racemic)
Output line: ≤ 200 nM

Input line: // query: CCN1C(=O)[C@@H](NC(=O)c2cccc(C(F)(F)F)c2)[C@@H](c2ccc(F)cc2)c2c(CNC(=O)C3(C#N)CCOCC3)nn(-c3ccccc3)c21 (racemic)
Output line: 1000 to 3000 nM

Input line: // query: CCN1C(=O)[C@@H](NC(=O)c2cccc(C(F)(F)F)c2)[C@@H](c2ccc(F)cc2)c2c([C@H](C)NC#N)nn(-c3ccccc3)c21
Output line: ≤ 200 nM

Input line: // query: C=CC(=O)N[C@H](C)c1nn(-c2ccccc2)c2c1[C@@H](c1ccc(F)cc1)[C@H](NC(=O)c1nccc(C(F)(F)F)n1)C(=O)N2CC
Output line: 200 to 1000 nM

###

Measured IC50 by item
Tgt: DCN1 (DCUND1) protein PONY domain (Homo sapiens (Human))
Assay details: TR-FRET assay, DCN1 binding with FAM-labeled probe
Experimental conditions: 24 hr after treatment with compound; read-out: TR FRET IC50 24 hr

>  <Molecule>
CCN1C(=O)[C@@H](NC(=O)c2cccc(C(F)(F)F)c2)[C@@H](c2ccccn2)c2c(C(=O)N3CCC[C@H]3C#N)nn(-c3ccccc3)c21 (mixture of isomers) [Compound I-413]

>  <IC50>
≤ 200 nM

$$$$

Input line: // lookup IC50 for CCN1C(=O)[C@@H](NC(=O)c2ccc3nn[nH]c3c2)[C@@H](C2CC2)c2c(C(=O)N3[C@H](C#N)C[C@H]4C[C@H]43)nn(C3CCOCC3)c21 [Compound I-705]
Output line: 1000 to 3000 nM

Input line: // query: CCCn1nc(C(=O)N(C)C(C)C#N)c2c1N(CC)C(=O)[C@@H](NC(=O)c1cccc(C(F)(F)F)c1)[C@H]2c1ccc(F)cc1 (stereo partly drawn) [Compound I-307]
Output line: ≤ 200 nM

###

Tgt: DCN1 (DCUND1) protein PONY domain (Homo sapiens (Human), UniProt Q96GG9)
Assay details: TR-FRET assay, DCN1 binding with FAM-labeled probe
Experimental conditions: 24 hr after treatment with compound; read-out: TR FRET IC50 24 hr
Experimental: A TR-FRET assay was performed to evaluate the ability of the compounds to bind the DCN-1 protein. The TR-FRET assay was designed following the Scott et al. protocol (Scott et al., Nat Chem Biol. 2017 August; 13(8): 850-857. Doi:10.1038/nchembio.2386). […] The TR-FRET ratio between Tb-DCN1 and the FAM-labeled probe was measured in a 384-well opti-plate (Perkin Elmer) using a plate reader (BMG) at 1, 5, and 24 hrs after treatment with compound (final DMSO concentration of 0.1%).
Measured IC50 by item

For orientation, consider the following solved cases.
>  <Compound>
CCN1C(=O)[C@@H](NC(=O)c2cccc(C(F)(F)F)c2)[C@@H](c2ccc(F)cc2)c2c(CCNC#N)nn(-c3ccccc3)c21 (racemic)

>  <IC50>
≤ 200 nM

$$$$
>  <Compound>
CCN1C(=O)[C@@H](NC(=O)c2nccc(C(F)(F)F)n2)[C@H](c2ccc(F)cc2)c2c(CC(=O)N[C@@H](C)C#N)nn(-c3ccccc3)c21 (single isomer, unassigned)

>  <IC50>
1000 to 3000 nM

$$$$
>  <Compound>
CCN1C(=O)[C@@H](NC(=O)c2cccc(C(F)(F)F)c2)[C@@H](c2ccc(F)cc2)c2c([C@H](CCCO)NC#N)nn(-c3ccccc3)c21

>  <IC50>
≤ 200 nM

$$$$

Input line: // lookup IC50 for CCN1C(=O)[C@@H](NC(=O)c2cccc(C(F)(F)F)c2)[C@@H](c2ccc(F)cn2)c2c(C(=O)N3CCC[C@H]3C#N)nn(-c3ccccc3)c21 (mixture of isomers)
Output line: ≤ 200 nM

Input line: // query: CCN1C(=O)[C@@H](NC(=O)c2cccc(C(F)(F)F)c2)[C@@H](C2CC2)c2c(CNC#N)nn(-c3ccccc3)c21 (racemic)
Output line: ≤ 200 nM

Input line: // query: CCN1C(=O)[C@H](NC(=O)c2cccc(C(F)(F)F)c2)[C@H](c2ccc(F)cc2)c2c(C(=O)N3CC[C@@H]3C#N)nn(-c3ccccc3)c21
Output line: 1000 to 3000 nM

###

Tgt: DCN1 (DCUND1) protein PONY domain (Homo sapiens (Human))
Assay details: TR-FRET assay, DCN1 binding with FAM-labeled probe
Experimental conditions: 24 hr after treatment with compound; read-out: TR FRET IC50 24 hr
pIC50: −log10 of the molar value.
Measure name: pIC50

>  <Molecule>
C=C(Cc1nn(-c2ccccc2)c2c1[C@H](c1ccc(F)cc1)[C@H](NC(=O)c1cccc(C(F)(F)F)c1)C(=O)N2CC)C(=O)O (racemic)

>  <pIC50>
5.52 to 6.00

$$$$
>  <Molecule>
CCN1C(=O)[C@@H](NC(=O)c2cccc(SC(F)(F)F)c2)[C@@H](C2CC2)c2c(C(=O)N3[C@H](C#N)C[C@H]4C[C@H]43)nn(C3CCOCC3)c21

>  <pIC50>
≥ 6.70

$$$$
>  <Molecule>
CCN1C(=O)[C@@H](NC(=O)c2nc(C(F)(F)F)cs2)[C@@H](c2ccc(F)cc2)c2c(C(=O)N3CCC[C@H]3C#N)nn(C3CCOCC3)c21

>  <pIC50>
6.00 to 6.70

$$$$
>  <Molecule>
CCN1C(=O)[C@H](NC(=O)c2cccc(C(F)(F)F)c2)[C@H](c2ccc(F)cc2)c2c(C(=O)N3CCC[C@H]3C#N)nn(-c3cccc(OCCCN4CCN(C5COC5)CC4)c3)c21

>  <pIC50>
5.52 to 6.00

$$$$

Shifting focus to the molecule that follows.
Input line: // lookup pIC50 for CCN1C(=O)[C@H](NC(=O)c2cccc(C(F)(F)F)c2)[C@@H](c2ccc(F)cc2)c2c([C@@H](C)NC#N)nn(-c3ccccc3)c21
Output line: 6.00 to 6.70

###

Tested on: Cullin-3 (CUL3) neddylation
Assay details: AlphaLISA assay for Cullin-3 (CUL3) neddylation in TF 1 cells
Assay type: cell-based
Experimental conditions: Homo sapiens, TF-1, 3 h, 3 hours treatment
pIC50: −log10 of the molar value.
Measured pIC50 by item

For orientation, consider the following solved cases.
>  <Compound>
C=C(CN(C)C1COC1)C(=O)NCc1nn(-c2ccccc2)c2c1[C@@H](c1ccc(F)cc1)[C@H](NC(=O)c1cccc(C(F)(F)F)c1)C(=O)N2CC (racemic)

>  <pIC50>
≥ 7.00

$$$$
>  <Compound>
CCN1C(=O)[C@H](NC(=O)c2cccc(C(F)(F)F)c2)[C@H](C2CC2)c2c(C(=O)N(CC#N)C3CC3)nn(C3CCOCC3)c21

>  <pIC50>
< 6.00

$$$$
>  <Compound>
CCN1C(=O)[C@@H](NC(=O)c2cccc(C(F)(F)F)c2)[C@@H](c2ccc(F)cc2)c2c(C(=O)N3CCNC[C@@H]3C#N)nn(C3CCOCC3)c21

>  <pIC50>
≥ 7.00

$$$$

Input line: // lookup pIC50 for C=C(CN1CC2(COC2)C1)C(=O)NCc1nn(-c2ccccc2)c2c1[C@H](c1ccc(F)cc1)[C@@H](NC(=O)c1cccc(C(F)(F)F)c1)C(=O)N2CC
Output line: ≥ 7.00

Input line: // query: CC#CC(=O)NCc1nn(-c2ccccc2)c2c1[C@H](c1ccc(F)cc1)[C@H](NC(=O)c1cccc(C(F)(F)F)c1)C(=O)N2CC (racemic)
Output line: 6.00 to 7.00

Input line: // query: CCN1C(=O)[C@@](C)(NC(=O)c2cccc(C(F)(F)F)c2)[C@@H](c2ccc(F)cc2)c2c([C@@H](C)NC#N)nn(-c3ccccc3)c21
Output line: ≥ 7.00

Input line: // query: CCN1C(=O)[C@@H](NC(=O)c2cccc(C(F)(F)F)c2)[C@@H](c2ccc(F)cc2)c2c(NC(=O)CC#N)nn(-c3ccccc3)c21 (racemic)
Output line: ≥ 7.00

Input line: // query: CCN1C(=O)[C@@H](NC(=O)c2cccc(C(F)(F)F)c2)[C@@H](c2ccc(F)cc2)c2c(C(=O)N(C)[C@H](C#N)CCN(C)C)nn(-c3ccccc3)c21 (single isomer, unassigned)
Output line: ≥ 7.00

Input line: // query: CCN1C(=O)[C@@H](NC(=O)c2cccc(C(F)(F)F)c2)[C@@H](c2ccc(F)cc2)c2c(C(=O)N3CCNCC3C#N)nn(C3CCOCC3)c21 (stereo partly drawn)
Output line: ≥ 7.00

Input line: // query: CCN1C(=O)[C@H](NC(=O)c2cccc(C(F)(F)F)c2)[C@H](c2ccc(F)cc2)c2c(C(=O)N3[C@H](C#N)C[C@H]4C[C@H]43)nn(-c3ccccc3)c21
Output line: < 6.00

Input line: // query: CCN1C(=O)[C@@H](NC(=O)c2cccc(C(F)(F)F)c2)[C@@H](C2CCC2)c2c(C(=O)N(C)C(C)C#N)nn(C3CCOCC3)c21 (stereo partly drawn)
Output line: ≥ 7.00

Input line: // query: CCN1C(=O)[C@H](NC(=O)c2cccc(C(F)(F)F)c2)[C@H](c2ccc(F)cc2)c2c(C(=O)N3CCC[C@H]3C#N)nn(-c3cccc(OCCN4CCC5(CC4)COC5)c3)c21
Output line: < 6.00

Input line: // query: C=C(CN1CC2(CCC2O)C1)C(=O)NCc1nn(-c2ccccc2)c2c1[C@H](c1ccc(F)cc1)[C@H](NC(=O)c1cccc(C(F)(F)F)c1)C(=O)N2CC (mixture of isomers)
Output line: ≥ 7.00

Input line: // query: CCCn1nc(C(=O)N2[C@H](C#N)C[C@H]3C[C@H]32)c2c1N(CC)C(=O)[C@@H](NC(=O)c1cccc(C(F)(F)F)c1)[C@H]2C1CC1
Output line: ≥ 7.00

Input line: // query: C=C(CC(=O)OC)C(=O)NCc1nn(-c2ccccc2)c2c1[C@H](c1ccc(F)cc1)[C@H](NC(=O)c1cccc(C(F)(F)F)c1)C(=O)N2CC (racemic)
Output line: < 6.00

Input line: // query: CCN1C(=O)[C@@H](NC(=O)c2cccc(C(F)(F)F)c2)[C@@H](c2ccc(F)cc2)c2c(C(=O)N3[C@H](C#N)C[C@H]4C[C@H]43)nn(C3CCOCC3)c21
Output line: ≥ 7.00

Input line: // query: CCN1C(=O)[C@H](NC(=O)c2cccc(C(F)(F)F)c2)[C@H](c2ccc(F)cc2)c2c(C(=O)N3CCOC[C@H]3C#N)nn(-c3ccccc3)c21
Output line: < 6.00

Input line: // query: CCN1C(=O)[C@@H](NC(=O)c2cccc(C(F)(F)F)c2)[C@@H](c2ccc(F)cc2)c2c(C(=O)N(CC#N)CC#N)nn(C3CCOCC3)c21
Output line: ≥ 7.00

Input line: // query: CCN1C(=O)[C@@H](NC(=O)c2ccn(C(F)(F)F)n2)[C@@H](c2ccc(F)cc2)c2c(C(=O)N3CCC[C@H]3C#N)nn(-c3ccccc3)c21
Output line: ≥ 7.00

Input line: // query: CCN1C(=O)[C@@H](NC(=O)c2cccc(C(F)(F)F)c2)[C@@H](C2CC2)c2c(C(=O)N3[C@H](C#N)CC[C@@H]3C)nn(C3CCOCC3)c21
Output line: 6.00 to 7.00

Input line: // query: CCN1C(=O)[C@@H](NC(=O)c2cccc(C(F)(F)F)c2)[C@@H](C2CC2)c2c(C(=O)N(CC#N)CC#N)nn(C3CCOCC3)c21
Output line: ≥ 7.00

meta.source: patent US20250163057A1
